Value source: patent US9809574B2

ASSAY_SYSTEM: Bcl-2 protein (histag-Bcl-2, UniProtKB P10415) (Homo sapiens (Human), UniProt P10415)
Sequence (P10415 whole entry): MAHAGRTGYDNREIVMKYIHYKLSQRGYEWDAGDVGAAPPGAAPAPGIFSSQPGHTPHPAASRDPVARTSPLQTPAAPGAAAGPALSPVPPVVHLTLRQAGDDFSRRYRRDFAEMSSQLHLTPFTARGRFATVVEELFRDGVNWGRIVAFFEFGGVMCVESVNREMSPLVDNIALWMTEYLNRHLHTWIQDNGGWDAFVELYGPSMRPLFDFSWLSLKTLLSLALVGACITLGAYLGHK
PROTOCOL: Inhibition of Bcl-2 by the fluorescence polarisation technique
Format: binding
CONDITIONS: fluorescence polarisation test; incubation for 2 hours; read-out: IC50 (nM) Bcl-2 FP
Reported IC50 is given for each of the following molecules.
State just the number; it will be interpreted in nM.

[[record]]
molecule = "C[C@@H]1Cc2ccccc2CN1C(=O)c1cc2c(cc1-c1cc(C(=O)N(C)c3ccc(O)cc3)c3n1CCCC3)CN(C(=O)COc1ccccc1)C2 [Example 52]"
observed_measurement = 3.8


Per the record, CCN(C(=O)c1cc(-c2cc3c(cc2C(=O)N2Cc4ccccc4C[C@H]2CN2CCOCC2)CN(C(=O)Oc2ccccc2)CC3)n(C)c1C)c1ccc(O)cc1 [Example 185] has IC50 of 3.7

Per the record, Cc1c(C(=O)N(C)c2ccccc2)cc(-c2cc3c(cc2C(=O)N2Cc4ccccc4C[C@H]2C)CN(C(=O)Oc2cccc(CCC(=O)N(C)C)c2)CC3)n1C [Example 787] has IC50 of 5

Per the record, CN(C(=O)c1cc(-c2cc3c(cc2C(=O)N2Cc4ccccc4C[C@H]2CN2CCOCC2)CN(C(=O)COc2ccccc2)C3)n2ccccc12)c1ccc(O)cc1 [Example 166] has IC50 of 6.4

###

ASSAY_SYSTEM: Bcl-2 protein (histag-Bcl-2, UniProtKB P10415) (Homo sapiens (Human), UniProt P10415)
PROTOCOL: Inhibition of Bcl-2 by the fluorescence polarisation technique
Type: binding
CONDITIONS: fluorescence polarisation test; incubation for 2 hours; read-out: IC50 (nM) Bcl-2 FP
Where a name gives a salt, the structure may show the parent alone.
For each record, check the reported IC50: if it is below 4 nM write 1 (yes), else write 0 (no).

[[record]]
molecule = "C[C@@H]1Cc2ccccc2CN1C(=O)c1cc2c(cc1-c1cc(C(=O)N(C)c3ccc(O)cc3)c3n1CCCC3)CCN(C(=O)CCc1ccccc1)C2"
assay_system = "Bcl-2 protein (histag-Bcl-2, UniProtKB P10415) (Homo sapiens (Human), UniProt P10415)"
answer_label = "0 (no)"

[[record]]
molecule = "Cc1c(C(=O)N(C)c2ccc(O)cc2)cc(-c2cc3c(cc2C(=O)N2Cc4ccccc4C[C@H]2CN2CCOCC2)CN(C(=O)NC2CCCCC2)CC3)n1C"
assay_system = "Bcl-2 protein (histag-Bcl-2, UniProtKB P10415) (Homo sapiens (Human), UniProt P10415)"
answer_label = "0 (no)"

[[record]]
molecule = "CNC(=O)N1CCc2cc(-c3cc(C(=O)N(C)c4ccc(O)cc4)c4n3CCCC4)c(C(=O)N3Cc4ccccc4C[C@H]3C)cc2C1"
assay_system = "Bcl-2 protein (histag-Bcl-2, UniProtKB P10415) (Homo sapiens (Human), UniProt P10415)"
answer_label = "0 (no)"

[[record]]
molecule = "CN(C(=O)c1cc(-c2cc3c(cc2C(=O)N2Cc4ccccc4C[C@H]2CN2CCOCC2)CN(C(=O)OC(C)(C)C)C3)n2c1CCCC2)c1ccc(O)cc1"
assay_system = "Bcl-2 protein (histag-Bcl-2, UniProtKB P10415) (Homo sapiens (Human), UniProt P10415)"
answer_label = "0 (no)"

[[record]]
molecule = "C[C@@H]1Cc2ccccc2CN1C(=O)c1cc2c(cc1-c1cc(C(=O)N(C)c3ccc(O)cc3)c3n1CCCC3)CN(C(=O)NCc1ccccc1)C2"
assay_system = "Bcl-2 protein (histag-Bcl-2, UniProtKB P10415) (Homo sapiens (Human), UniProt P10415)"
answer_label = "0 (no)"


Request: # TODO verify IC50 < 4 nM strictly for this molecule: CN(C(=O)c1cc(-c2cc3c(cc2C(=O)N2Cc4ccccc4C[C@H]2CN2CCOCC2)CN(C(=O)Oc2ccccc2)C3)n2c1CCCC2)c1ccc(O)cc1 [Example 16, hydrochloride]
Response: 0 (no)

###

Test system: RS4; 11 leukaemia cell line
PROTOCOL: In vitro cytotoxicity, Microculture Tetrazolium Assay (MTT)
Assay type: cell-based
CONDITIONS: Homo sapiens, 11 cells exposed for 48 hours
ASSAY_METRIC: IC50 (nM)
State just the number; it will be interpreted in nM.

Here are 3 compounds together with their reported answers.
[[record]]
smiles_str = "Cc1c(C(=O)N(C)c2ccc(O)cc2)cc(-c2cc3c(cc2C(=O)N2Cc4ccccc4C[C@H]2C)CN(C(=O)Nc2ccccc2)CC3)n1C"
observed_measurement = 22

[[record]]
smiles_str = "C[C@@H]1Cc2ccccc2CN1C(=O)c1cc2c(cc1-c1cc(C(=O)N(C)c3ccc(O)cc3)c3n1CCCC3)CCN(C(=O)Cc1ccc(CN(C)C)cc1)C2"
observed_measurement = 82

[[record]]
smiles_str = "CCCN(C(=O)c1cc(-c2cc3c(cc2C(=O)N2Cc4ccccc4C[C@H]2CN2CCOCC2)CN(C(=O)Oc2ccccc2)CC3)n(C)c1C)c1ccc(O)cc1"
observed_measurement = 4.5


Form field IC50 for item "Cc1c(C(=O)N(C)c2ccc(O)cc2)cc(-c2cc3c(cc2C(=O)N2Cc4ccccc4C[C@H]2C)CN(C(=O)Cc2ccc(C#N)cc2)CC3)n1C" on RS4; 11 leukaemia cell line: 5.5

Form field IC50 for item "COc1cccc(/C=C/C(=O)N2CCc3cc(-c4cc(C(=O)N(C)c5ccc(O)cc5)c(C)n4C)c(C(=O)N4Cc5ccccc5C[C@H]4CN4CCOCC4)cc3C2)c1" on RS4; 11 leukaemia cell line: 24

Form field IC50 for item "Cc1c(C(=O)N(C)c2ccc(O)cc2)cc(-c2cc3c(cc2C(=O)N2Cc4ccccc4C[C@H]2CN2CCOCC2)CN(C(=O)Cc2ccccc2)CC3)n1C" on RS4; 11 leukaemia cell line: 24

###

Test system: RS4; 11 leukaemia cell line
PROTOCOL: In vitro cytotoxicity, Microculture Tetrazolium Assay (MTT)
Format: cell-based
CONDITIONS: Homo sapiens, 11 cells exposed for 48 hours
Reported IC50 is given for each of the following compounds.
State just the number; it will be interpreted in nM.

[[record]]
compound = "C[C@@H]1Cc2ccccc2CN1C(=O)c1cc2c(cc1-c1cc(C(=O)N(C)c3ccc(O)cc3)c3n1CCCC3)CN(C(=O)Cc1ccccc1)C2 [Example 14]"
assay_metric = "IC50"
observed_measurement = 27

[[record]]
compound = "C[C@@H]1Cc2ccccc2CN1C(=O)c1cc2c(cc1-c1cc(C(=O)N(C)c3ccc(O)cc3)c3n1CCCC3)CCN(C(=O)NCc1ccccc1)C2 [Example 73]"
assay_metric = "IC50"
observed_measurement = 36

[[record]]
compound = "Cc1c(C(=O)N(C)c2ccc(O)cc2)cc(-c2cc3c(cc2C(=O)N2Cc4ccccc4C[C@H]2CN2CCOCC2)CN(C(=O)/C=C/c2ccccc2)CC3)n1C [Example 131]"
assay_metric = "IC50"
observed_measurement = 11

[[record]]
compound = "C[C@@H]1Cc2ccccc2CN1C(=O)c1cc2c(cc1-c1cc(C(=O)N(C)c3ccc(O)cc3)c3n1CCCC3)CN(C(=O)CCc1ccccc1)C2 [Example 15]"
assay_metric = "IC50"
observed_measurement = 93


--- query ---
Per the record, C[C@@H]1Cc2ccccc2CN1C(=O)c1cc2c(cc1-c1cc(C(=O)N(C)c3ccc(O)cc3)c3n1CCCC3)CCN(C(=O)CCc1ccccc1)C2 [Example 37] has IC50 of 18

###

ASSAY_SYSTEM: Bcl-2 protein (histag-Bcl-2, UniProtKB P10415) (Homo sapiens (Human), UniProt P10415)
PROTOCOL: Inhibition of Bcl-2 by the fluorescence polarisation technique
Type: binding
CONDITIONS: fluorescence polarisation test; incubation for 2 hours; read-out: IC50 (nM) Bcl-2 FP
Reported IC50 is given for each of the following compounds.

[[record]]
compound = "C[C@@H]1Cc2ccccc2CN1C(=O)c1cc2c(cc1-c1cc(C(=O)N(C)c3ccc(O)cc3)c3n1CCCC3)CCN(C(=O)Cc1ccc(N3CCN(C)CC3)cc1)C2 [Example 97]"
assay_system = "Bcl-2 protein (histag-Bcl-2, UniProtKB P10415) (Homo sapiens (Human), UniProt P10415)"
assay_metric = "IC50"
observed_measurement = "4.9 nM"


Per the record, Cc1c(C(=O)N(C)c2ccc(O)cc2)cc(-c2cc3c(cc2C(=O)N2Cc4ccccc4C[C@H]2CCN2CCOCC2)CN(C(=O)Cc2ccccc2)CC3)n1C [Example 779] has IC50 of 2.9 nM

Per the record, Cc1c(C(=O)N(C)c2ccccc2)cc(-c2cc3c(cc2C(=O)N2Cc4ccccc4C[C@H]2CN2CCN(C)CC2)CN(C(=O)Oc2cccc(C(=O)O)c2)CC3)n1C [Example 735] has IC50 of 12 nM

Per the record, Cc1c(C(=O)N(C)c2ccc(O)cc2)cc(-c2cc3c(cc2C(=O)N2Cc4ccccc4C[C@H]2C)CN(C(=O)Oc2ccc(Cl)cc2)C3)n1C [Example 105] has IC50 of 7.3 nM

Per the record, Cc1c(C(=O)N(C)c2ccc(O)cc2)cc(-c2cc3c(cc2C(=O)N2Cc4ccccc4C[C@H]2CN2CCOCC2)CN(C(=O)CC2CCCCC2)CC3)n1C [Example 794] has IC50 of 4.6 nM

Per the record, C[C@@H]1Cc2ccccc2CN1C(=O)c1cc2c(cc1-c1cc(C(=O)N(C)c3ccc(O)cc3)c3n1CCCC3)CCN(C(=O)CCc1ccc(NCCN(C)C)cc1)C2 [Example 138] has IC50 of 12 nM
